Target: Rac GTPase-activating protein 1 (Homo sapiens) (UniProt Q9H0H5)
Sequence (Q9H0H5 whole entry, looked up): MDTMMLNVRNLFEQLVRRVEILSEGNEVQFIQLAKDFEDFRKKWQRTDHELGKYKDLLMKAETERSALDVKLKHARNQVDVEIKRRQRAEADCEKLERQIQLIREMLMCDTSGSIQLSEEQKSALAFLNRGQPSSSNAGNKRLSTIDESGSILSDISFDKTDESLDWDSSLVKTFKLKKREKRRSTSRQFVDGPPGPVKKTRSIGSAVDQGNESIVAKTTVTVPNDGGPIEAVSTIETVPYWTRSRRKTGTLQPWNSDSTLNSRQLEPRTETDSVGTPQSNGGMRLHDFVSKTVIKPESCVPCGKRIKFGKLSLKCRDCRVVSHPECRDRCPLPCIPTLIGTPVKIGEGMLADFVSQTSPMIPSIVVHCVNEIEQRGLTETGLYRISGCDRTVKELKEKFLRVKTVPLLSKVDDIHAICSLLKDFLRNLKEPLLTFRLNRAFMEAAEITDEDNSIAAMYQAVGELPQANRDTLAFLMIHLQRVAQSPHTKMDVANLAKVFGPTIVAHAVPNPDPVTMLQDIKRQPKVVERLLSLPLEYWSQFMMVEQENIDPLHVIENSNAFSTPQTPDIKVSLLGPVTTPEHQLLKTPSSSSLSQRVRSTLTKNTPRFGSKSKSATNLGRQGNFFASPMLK
Experiment: blockers of MgcRacGAP-driven Rac1 GTP hydrolysis – biochemical, ADP Hunter fluorescence, primary and confirmatory, confirmation (AID 624330);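 also: fluorescence reports GDP produced by GAP-driven GTP hydrolysis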
Details: MgcRacGAP-stimulated Rac1 GTP hydrolysis, at 30 µM, stronger effect = higher value, GST-tagged Rac1 F28L mutant substrate
The campaign covered roughly 340,000 compounds. About 2,100 (0.62%) were called active. A selection follows. Measured potencies and affinities stand elsewhere.
For each entry below, report its inhibition value.
Reply numerically in %, unit not repeated.

Input: Identify the measured inhibition of `Cc1ccc2c(C(=O)N3CCN(c4ccccc4)CC3)cc(-c3cccnc3)nc2c1C` for Rac GTPase-activating protein 1 (Homo sapiens) (UniProt Q9H0H5).
Output: 6.48

Input: Identify the measured inhibition of `Cc1ccccc1Cn1nc(C)c(NC(=O)c2cc(CC(C)C)on2)c1C` for Rac GTPase-activating protein 1 (Homo sapiens) (UniProt Q9H0H5).
Output: 9.15

Input: Identify the measured inhibition of `CN(CC(=O)Nc1ccc(S(N)(=O)=O)cc1)C1CCCCC1` for Rac GTPase-activating protein 1 (Homo sapiens) (UniProt Q9H0H5).
Output: 1.98

Input: Identify the measured inhibition of `COc1ccc(C=C2NC(=O)NC2=O)cc1O` for Rac GTPase-activating protein 1 (Homo sapiens) (UniProt Q9H0H5).
Output: 10.9

Input: Identify the measured inhibition of `OCCCNCc1cccc2ccccc12` for Rac GTPase-activating protein 1 (Homo sapiens) (UniProt Q9H0H5).
Output: -2.77

Input: Identify the measured inhibition of `COc1ccc(C=C2SC(=O)NC2=O)cc1OC` for Rac GTPase-activating protein 1 (Homo sapiens) (UniProt Q9H0H5).
Output: 6.99

Input: Identify the measured inhibition of `O=C(CCNS(=O)(=O)c1ccc2[nH]c(=O)oc2c1)Nc1ccccc1` for Rac GTPase-activating protein 1 (Homo sapiens) (UniProt Q9H0H5).
Output: -24.4

Input: Identify the measured inhibition of `CCN(CC)CCNc1cccc2sc3ccccc3c(=O)c12` for Rac GTPase-activating protein 1 (Homo sapiens) (UniProt Q9H0H5).
Output: 19.4

Input: Identify the measured inhibition of `COc1cccc(-n2nnc3c(=O)n(CC(=O)N4CCC(C)CC4)cnc32)c1` for Rac GTPase-activating protein 1 (Homo sapiens) (UniProt Q9H0H5).
Output: 11.4

Input: Identify the measured inhibition of `CN(CC(=O)Nc1ccc(Cl)c(Cl)c1)C1CCCCC1` for Rac GTPase-activating protein 1 (Homo sapiens) (UniProt Q9H0H5).
Output: 23.1

Input: Identify the measured inhibition of `CCCC(=O)Nc1cc(C)c(NC(=O)c2ccncc2)cn1` for Rac GTPase-activating protein 1 (Homo sapiens) (UniProt Q9H0H5).
Output: 1.4

Input: Identify the measured inhibition of `C=CCn1c(SCC(N)=O)nnc1-c1ccccc1O` for Rac GTPase-activating protein 1 (Homo sapiens) (UniProt Q9H0H5).
Output: 4.07

Input: Identify the measured inhibition of `C=CCn1c(SCC(=O)O)nnc1-c1ccccc1` for Rac GTPase-activating protein 1 (Homo sapiens) (UniProt Q9H0H5).
Output: -4.43

Input: Identify the measured inhibition of `COc1cc(CNCc2ccco2)cc(OC)c1O` for Rac GTPase-activating protein 1 (Homo sapiens) (UniProt Q9H0H5).
Output: 6.83

Input: Identify the measured inhibition of `COc1ccc(C(=O)c2coc3ccc(O)c(CN4CCCC4)c23)cc1` for Rac GTPase-activating protein 1 (Homo sapiens) (UniProt Q9H0H5).
Output: 8.22
